Cited source: patent US20060234956A1

- Tested on: OVCAR-3 (Adenocarcinoma, ovary, human)
- ASSAY_DETAILS: Anti-cancer activity assay, alamarBlue cell growth, OVCAR-3
- Assay type: cell-based
- MEASUREMENT_CONDITIONS: OVCAR-3; 72-hour incubation, alamarBlue; CK in 5% ethanol/5% Cremophor RH40, derivatives in PBS pH 7.4; read-out: IC50 (μM) of CK, CK succinate and CK glutarate derivatives, OVCAR-3
- Text: Four human tumor cell lines, OVCAR-3 (Adenocarcinoma, ovary, human), A549 (Carcinoma, lung, human), HT-29 (Adenocarcinoma, colon, moderately well-differentiated grade II, human) and MCF-7 (Breast adenocarcinoma, pleural effusion, human) were chosen in the experiments., which were obtained from American Type Culture Collection (ATCC) under codes of ATCC HTB-161, ATCC CCL-185, ATC HTB-38 and ATCC HTB-22, respectively. […]
MEASURE: IC50 (µM)

Query block: Please give measured IC50 of the following entry: CC(C)=CCCC(C)(OC1OC(COC(=O)CCCC(=O)O)C(O)C(OC(=O)CCCC(=O)O)C1O)C1CCC2(C)C1C(O)CC1C3(C)CCC(O)C(C)(C)C3CCC12C (stereo not shown) [GS-14, CK-3′,6′-diglutarate]
Result block: 79.8

Query block: Find the measured IC50 of CC(C)=CCCC(C)(OC1OC(COC(=O)CCC(=O)O)C(O)C(O)C1O)C1CCC2(C)C1C(O)CC1C3(C)CCC(O)C(C)(C)C3CCC12C (stereo not shown) [GS-6, CK-6′-monosuccinate] and report it.
Result block: 22.1

Query block: Using known records, supply IC50 for CC(C)=CCC[C@](C)(O[C@@H]1O[C@H](CO)[C@@H](O)[C@H](O)[C@H]1O)[C@H]1CC[C@]2(C)[C@@H]1[C@H](O)C[C@@H]1[C@@]3(C)CC[C@H](O)C(C)(C)[C@@H]3CC[C@]12C [GS-12, 20-O-β-D-glucopyranosyl-protopanaxadiol, reference compound]
Result block: 2.7

Query block: Hello, please tell me recorded IC50 for this one: CC(C)=CCCC(C)(OC1OC(COC(=O)CCC(=O)O)C(O)C(OC(=O)CCC(=O)O)C1O)C1CCC2(C)C1C(O)CC1C3(C)CCC(O)C(C)(C)C3CCC12C (stereo not shown) [GS-9, CK-3′,6,-disuccinate]
Result block: 89.9

A = CC(C)=CCCC(C)(OC1OC(CO)C(O)C(OC(=O)CCCC(=O)O)C1O)C1CCC2(C)C1C(O)CC1C3(C)CCC(O)C(C)(C)C3CCC12C (stereo not shown) [GS-13, CK-3′-monoglutarate]
B = CC(C)=CCC[C@](C)(O[C@@H]1O[C@H](CO)[C@@H](O)[C@H](OC(=O)CCC(=O)O)[C@H]1O)[C@H]1CC[C@]2(C)[C@@H]1[C@H](O)C[C@@H]1[C@@]3(C)CC[C@H](O)C(C)(C)[C@@H]3CC[C@]12C [GS-8, CK-3′-monosuccinate]
Query block: Select the item whose IC50 value is smaller, choosing between A and B . Please respond with the label that marks your chosen entry.
Result block: B
(B: 19.3 µM, A: 69.1 µM)
